IC50: recorded values
Target: CDK1 (Homo sapiens, UniProt P06493)
Sequence (P06493 whole entry, species assumed): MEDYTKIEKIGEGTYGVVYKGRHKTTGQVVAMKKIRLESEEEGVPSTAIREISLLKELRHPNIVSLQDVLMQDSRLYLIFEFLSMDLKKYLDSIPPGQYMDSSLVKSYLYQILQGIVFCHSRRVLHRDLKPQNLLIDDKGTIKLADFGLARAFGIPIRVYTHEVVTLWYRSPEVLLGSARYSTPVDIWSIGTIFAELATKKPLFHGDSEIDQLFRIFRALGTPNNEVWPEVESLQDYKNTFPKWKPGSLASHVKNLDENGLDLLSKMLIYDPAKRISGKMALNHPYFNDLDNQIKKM
Sequence (P14635 whole entry partner, species assumed): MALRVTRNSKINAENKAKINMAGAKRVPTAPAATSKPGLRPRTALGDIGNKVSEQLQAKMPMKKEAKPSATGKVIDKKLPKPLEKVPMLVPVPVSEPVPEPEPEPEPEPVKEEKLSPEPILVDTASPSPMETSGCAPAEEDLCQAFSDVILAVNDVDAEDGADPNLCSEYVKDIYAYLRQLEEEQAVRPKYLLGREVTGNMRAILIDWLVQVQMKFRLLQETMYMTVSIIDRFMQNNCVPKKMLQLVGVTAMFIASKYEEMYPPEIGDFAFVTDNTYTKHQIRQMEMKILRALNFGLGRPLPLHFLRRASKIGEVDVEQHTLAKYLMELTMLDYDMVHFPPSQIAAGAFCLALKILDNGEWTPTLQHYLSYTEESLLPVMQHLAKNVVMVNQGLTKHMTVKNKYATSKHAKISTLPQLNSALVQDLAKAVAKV
Protocol text: Cyclin dependent protein kinase substrate phosphorylation assay, CDK1
Format: biochemical
Test context: read-out: CDK1 IC50

Query: Record request: IC50 value, item CC(C)(CO)CNS(=O)(=O)c1ccc(NC=C2C(=O)Nc3ccc4ncsc4c32)cc1
Reply: 0.001 to 0.01 µM

Query: Moving on to CNS(=O)(=O)Cc1ccc(NN=C2C(=O)Nc3ccc4ncccc4c32)cc1
Reply: 0.051 to 0.1 µM

Query: Moving on to CCC(C)Cc1cccc2c1C(=NNc1ccc(S(N)(=O)=O)cc1)C(=O)N2 (stereo not drawn)
Reply: 0.011 to 0.05 µM

Query: Moving on to COC(=O)c1ccc2c(c1)/C(=C/Nc1ccc(S(N)(=O)=O)cc1)C(=O)N2
Reply: 0.011 to 0.05 µM

Query: Moving on to CN(C)S(=O)(=O)c1ccc(NC=C2C(=O)Nc3ccc(-c4cnco4)cc32)cc1
Reply: 0.011 to 0.05 µM

Query: Moving on to CNS(=O)(=O)Cc1ccc(NN=C2C(=O)Nc3cc(C)c(O)c(C)c32)cc1
Reply: > 0.1 µM

Query: Moving on to CS(=O)(=O)Cc1ccc(NC=C2C(=O)Nc3ccc4ncsc4c32)cc1
Reply: > 0.1 µM

Query: Moving on to O=C1Nc2ccc3ncsc3c2C1=CNc1ccc2nn[nH]c2c1
Reply: 0.051 to 0.1 µM

Query: Moving on to CC(C)COC(=O)c1ccc2c(c1)C(=CNc1ccc(S(N)(=O)=O)cc1)C(=O)N2
Reply: 0.011 to 0.05 µM

* * *

Target or system cSrc (Homo sapiens): recorded pIC50 listed per item.
pIC50: −log10 of the molar value.

INSERT INTO measurements (line_notation, recorded_endpoint, endpoint_value) VALUES
  ('CNS(=O)(=O)Cc1ccc(NN=C2C(=O)Nc3cc(C)c(O)c(C)c32)cc1', 'pIC50', '< 7.00');

Moving on to another compound below.
Query: Record request: pIC50 value, item O=C1Nc2ccc3ncsc3c2C1=CNc1ccc(S(=O)(=O)Nc2ccccn2)cc1
Reply: < 7.00

* * *

pIC50: recorded values
Target: UL97 (Human cytomegalovirus)
Construct: GST
Sequence (P16788 whole entry): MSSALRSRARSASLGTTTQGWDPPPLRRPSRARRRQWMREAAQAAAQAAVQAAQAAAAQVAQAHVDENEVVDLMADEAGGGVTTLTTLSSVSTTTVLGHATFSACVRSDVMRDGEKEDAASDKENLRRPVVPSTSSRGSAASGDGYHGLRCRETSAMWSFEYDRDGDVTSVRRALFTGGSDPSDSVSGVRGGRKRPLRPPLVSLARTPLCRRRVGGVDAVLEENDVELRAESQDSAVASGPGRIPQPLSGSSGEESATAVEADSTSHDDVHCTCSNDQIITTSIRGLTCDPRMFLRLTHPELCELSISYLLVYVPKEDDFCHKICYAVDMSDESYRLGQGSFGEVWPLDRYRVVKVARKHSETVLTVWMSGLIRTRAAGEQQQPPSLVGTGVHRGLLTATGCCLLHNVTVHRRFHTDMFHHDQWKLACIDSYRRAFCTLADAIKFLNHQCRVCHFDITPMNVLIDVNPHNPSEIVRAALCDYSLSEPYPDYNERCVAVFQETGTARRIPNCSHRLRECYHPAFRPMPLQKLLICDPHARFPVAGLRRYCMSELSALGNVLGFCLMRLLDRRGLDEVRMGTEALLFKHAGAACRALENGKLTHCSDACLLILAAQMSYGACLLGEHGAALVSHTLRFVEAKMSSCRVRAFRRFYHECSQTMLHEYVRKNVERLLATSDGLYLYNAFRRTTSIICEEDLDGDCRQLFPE
Protocol text: UL97 protein kinase assay, 32P transfer from ATP to histone H2B
pIC50: −log10 of the molar value.

# count of solved cases: 3
INSERT INTO measurements (compound, endpoint_value) VALUES
  ('O=C1Nc2ccc3ncsc3c2C1=CNc1ccc(S(=O)(=O)Nc2ccccn2)cc1 [Example 72]', '7.30 to 7.96'),
  ('CNS(=O)(=O)Cc1ccc(NN=C2C(=O)Nc3cc(C)c(O)c(C)c32)cc1 [Example 99]', '8.00 to 9.00'),
  ('CC(C)(CO)CNS(=O)(=O)c1ccc(NC=C2C(=O)Nc3ccc4ncsc4c32)cc1 [Example 77]', '8.00 to 9.00');

Moving on to another compound below.
Query: Fill in the recorded pIC50 for this compound, with UL97 (Human cytomegalovirus) as test system: CNS(=O)(=O)Cc1ccc(NN=C2C(=O)Nc3ccc4ncccc4c32)cc1 [Example 68]
Reply: 7.30 to 7.96

* * *

Test system: MDA MB468
Protocol text: MTT assay, MDA MB468
Format: cell-based, human
Test context: Homo sapiens, MDA-MB-468, 72 h, read-out: MTT MDA MB468 IC50
Recorded endpoint: IC50

Query: Record request: IC50 value, item O=C1Nc2ccc3ncsc3c2C1=CNc1ccc(S(=O)(=O)Nc2ccccn2)cc1
Reply: > 5 µM
